Recorded Ki (NK2), % @ 1000 for the following molecules
target.under.test: NK2 receptors (Homo sapiens, UniProt P21452)
Sequence (P21452 whole entry): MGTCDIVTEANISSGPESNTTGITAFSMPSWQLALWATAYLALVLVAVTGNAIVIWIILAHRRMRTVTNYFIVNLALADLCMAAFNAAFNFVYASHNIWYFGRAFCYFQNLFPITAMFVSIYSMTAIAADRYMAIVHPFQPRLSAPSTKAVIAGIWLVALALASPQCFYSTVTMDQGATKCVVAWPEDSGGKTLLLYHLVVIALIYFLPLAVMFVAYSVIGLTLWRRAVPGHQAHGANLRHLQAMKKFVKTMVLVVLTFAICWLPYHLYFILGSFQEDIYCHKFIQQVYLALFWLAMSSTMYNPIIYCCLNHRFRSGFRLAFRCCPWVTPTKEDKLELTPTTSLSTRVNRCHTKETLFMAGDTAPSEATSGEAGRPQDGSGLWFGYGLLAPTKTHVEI
assay.info: in vitro binding to NK2 receptors
Design: concentration or dose not given beside the values
test.parameters: @ 1000 (concentration unit not given)
Numeric answer plus unit only.

{"columns": ["molecule", "measurement"],
 "data": [
  ["COc1cc(OCC(O)CNC2CCN(c3ncnc4scc(-c5ccccc5)c34)CC2)ccc1Cl (stereo not drawn)", "47% @"],
  ["Cl.OC(CNC1CCN(c2ncnc3scc(-c4ccccc4)c23)CC1)COc1ccc(C(F)(F)F)cc1 (stereo not drawn)", "14% @"],
  ["OC(CNC1CCN(c2ncnc3scc(-c4ccccc4)c23)CC1)COc1ccc(F)c(F)c1 (stereo not drawn)", "28% @"],
  ["OC(CNC1CCN(c2ncnc3scc(-c4ccccc4)c23)CC1)COc1cc(F)cc(F)c1 (stereo not drawn)", "21% @"]
]}

// Ki (NK2), % @ 1000 lookup, key: OC(CNC1CCN(c2ncnc3scc(-c4ccccc4)c23)CC1)COc1ccc(OC(F)(F)F)cc1 (stereo not drawn)
49% @

// Ki (NK2), % @ 1000 lookup, key: Cl.OC(CNC1CCN(c2ncnc3scc(-c4ccccc4)c23)CC1)COc1ccc(Cl)c(Cl)c1 (stereo not drawn)
28% @
